Observed pIC50, system Acetylcholinesterase (Homo sapiens, UniProt P22303).
Keep it numeric: pIC50 is minus log10 of the concentration in mol/L.

Solved entries (count: 6):
# Structure notation, Test target, pIC50
measured = [
    ("N#Cc1c(Cl)nc(NCCCCC2CCN(Cc3ccccc3)CC2)c(C#N)c1-c1ccccc1", "Acetylcholinesterase (Homo sapiens, UniProt P22303)", 7.51),
    ("N#Cc1cc(C#N)c(NCCCCC2CCN(Cc3ccccc3)CC2)nc1Cl", "Acetylcholinesterase (Homo sapiens, UniProt P22303)", 7.89),
    ("N#Cc1cc(C#N)c(NC2CCN(Cc3ccccc3)CC2)nc1NC1CCN(Cc2ccccc2)CC1", "Acetylcholinesterase (Homo sapiens, UniProt P22303)", 5.14),
    ("N#Cc1c(NCCC2CCN(Cc3ccccc3)CC2)nc(NCCC2CCN(Cc3ccccc3)CC2)c(C#N)c1-c1ccccc1", "Acetylcholinesterase (Homo sapiens, UniProt P22303)", 5.01),
    ("N#Cc1c(Cl)nc(NCCC2CCN(Cc3ccccc3)CC2)c(C#N)c1-c1ccccc1", "Acetylcholinesterase (Homo sapiens, UniProt P22303)", 5.36),
    ("N#Cc1c(Cl)nc(NCCCC2CCN(Cc3ccccc3)CC2)c(C#N)c1-c1ccccc1", "Acetylcholinesterase (Homo sapiens, UniProt P22303)", 5.41),
]

For the next question, use this molecule.
Query for Acetylcholinesterase (Homo sapiens, UniProt P22303): what pIC50 does the record show for "N#Cc1cc(C#N)c(NC2CCN(Cc3ccccc3)CC2)nc1Cl" ? 5.27

* * *

organism: Homo sapiens; experiment: Selectivity index, ratio of IC50 for human plasma BuChE to IC50 for purified human erythrocyte AChE
Reported Ratio IC50 is given for each of the following molecules.
In your answer, state the number alone without any accompanying words.

For the molecule "N#Cc1c(Cl)nc(NCCCC2CCN(Cc3ccccc3)CC2)c(C#N)c1-c1ccccc1" , what Ratio IC50 is on record? 2.43

* * *

Reported pIC50 is given for each of the following compounds.
biological target: Cholinesterase (Homo sapiens); assay: Inhibition of human plasma BuChE using butyrylthiocholine as substrate by Ellman's method
Sequence (P06276 whole entry): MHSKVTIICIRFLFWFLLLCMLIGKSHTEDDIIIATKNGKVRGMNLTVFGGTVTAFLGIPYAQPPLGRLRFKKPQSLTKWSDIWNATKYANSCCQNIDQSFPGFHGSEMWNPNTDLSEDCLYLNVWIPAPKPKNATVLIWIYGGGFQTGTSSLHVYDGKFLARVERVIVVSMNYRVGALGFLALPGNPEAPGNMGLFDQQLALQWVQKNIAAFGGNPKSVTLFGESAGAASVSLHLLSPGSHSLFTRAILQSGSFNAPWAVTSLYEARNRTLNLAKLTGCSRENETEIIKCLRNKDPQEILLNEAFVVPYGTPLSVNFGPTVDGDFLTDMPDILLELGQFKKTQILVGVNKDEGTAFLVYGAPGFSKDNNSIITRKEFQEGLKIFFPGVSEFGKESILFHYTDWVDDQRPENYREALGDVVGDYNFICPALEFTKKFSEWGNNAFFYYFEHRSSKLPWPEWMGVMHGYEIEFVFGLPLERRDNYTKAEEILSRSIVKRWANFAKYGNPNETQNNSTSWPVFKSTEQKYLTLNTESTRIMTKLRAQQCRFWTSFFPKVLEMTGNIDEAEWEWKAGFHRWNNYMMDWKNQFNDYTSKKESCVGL
Keep it numeric: pIC50 is minus log10 of the concentration in mol/L.

Solved entries (count: 4):
# Structure notation, pIC50
measured = [
    ("N#Cc1cc(C#N)c(NCCC2CCN(Cc3ccccc3)CC2)nc1Cl", 6.33),
    ("N#Cc1cc(C#N)c(NCCCCC2CCN(Cc3ccccc3)CC2)nc1Cl", 5.09),
    ("N#Cc1c(Cl)nc(NCCCC2CCN(Cc3ccccc3)CC2)c(C#N)c1-c1ccccc1", 5.03),
    ("N#Cc1cc(C#N)c(NCCCC2CCN(Cc3ccccc3)CC2)nc1Cl", 5.08),
]

For the next question, use this compound.
For the compound "N#Cc1c(Cl)nc(NCCCCC2CCN(Cc3ccccc3)CC2)c(C#N)c1-c1ccccc1" , what pIC50 is on record? 5.25

* * *

assay: Permeability of the compound at 1 mg/ml after 4 hrs by PAMPA; assay type: ADME; details: read-out: permeability
Quantity kind: Papp at 4 h, 1 mg/ml (×10⁻⁶ cm/s)
Lab book: enter the figure in ×10⁻⁶ cm/s, no units written.

# Structure notation, Quantity kind, Meas value
records = [
    ("N#Cc1c(Cl)nc(NCCCC2CCN(Cc3ccccc3)CC2)c(C#N)c1-c1ccccc1", "Papp at 4 h, 1 mg/ml", 10.1),
]

For the compound "N#Cc1cc(C#N)c(NC2CCN(Cc3ccccc3)CC2)nc1NC1CCN(Cc2ccccc2)CC1" , what Papp at 4 h, 1 mg/ml is on record? 5

For the compound "N#Cc1c(Cl)nc(NCCCCC2CCN(Cc3ccccc3)CC2)c(C#N)c1-c1ccccc1" , what Papp at 4 h, 1 mg/ml is on record? 10.3

For the compound "N#Cc1cc(C#N)c(NC2CCN(Cc3ccccc3)CC2)nc1Cl" , what Papp at 4 h, 1 mg/ml is on record? 7.39
